# experimental_system: Cytochrome P450 2C9 (Homo sapiens)
# assay_method_text: Cytochrome panel assay with activity outcomes
# particulars: recombinant CYP, pro-luciferin dealkylation, luminescence, p450-cyp2c9; series mostly up to 57.1 µM
Out of some 16,000 compounds screened, about 4,000 (25%) were called active. About 26% were inconclusive and are not listed. Calls follow the shape of the dose curve; as a rule, active = well fitted curve in the direction sought with a large enough effect; inconclusive = small, poorly fitted or top-dose-only effect, or effect the other way; inactive = no such curve, though single readings can be large or run the other way. Only a sample is shown.
Thanks in advance; please answer with one of these: 1 (yes) = active, 0 (no) = inactive

Consider the worked cases shown below.
Problem: Could you please tell me the result logged for FC(F)(F)c1nc2ccccc2nc1N/N=C/c1ccc(Cl)cc1 in this assay?
Solution: 0 (no)

Problem: Which outcome was assigned to CCOC(=O)c1c(C)n(C)c2ccc(OC)c(NC(=O)CN3CCCCC3)c12 in this test?
Solution: 0 (no)

Problem: Per the assay record, what outcome was assigned to O=C(O)C1CCCN1C(=O)OCc1ccccc1 (stereo not given) ?
Solution: 0 (no)

Problem: Check the results log: what was the call for CN(C)CC/C=C1\c2ccccc2CSc2ccccc21 ?
Solution: 0 (no)

Problem: Outcome logged for CCNc1ncc2nc(-c3cccc(C#N)c3)c(=O)n(CCC#N)c2n1 in this assay:
Solution: 0 (no)

Problem: Query: recorded result category for CCC(Sc1nc2cc3c(cc2c(=O)n1Cc1ccco1)OCO3)C(=O)Nc1cccc(OC)c1 (stereo not given) in this test
Solution: 1 (yes)

Problem: Assay outcome for CC(=O)N1CCC2(CCCN(c3ccccn3)C2)CC1 : what was it?
Solution: 0 (no)

Problem: Identify the outcome logged in this assay for the molecule shown: CCCC(=O)Nc1nc(C(=O)OCC)cs1
Solution: 0 (no)

More entries:
Problem: Hey, what did the test say about COc1cccc(Nc2ncc3nc(-c4cccs4)c(=O)n(Cc4cccs4)c3n2)c1 ?
Solution: 0 (no)

Problem: Tell me the assay call for CCOC(=O)c1c(-c2cccc(C)c2)csc1NC(=O)c1c(-c2ccccc2)noc1C please.
Solution: 0 (no)

Problem: Look up the recorded call for O=C(CCn1c(=S)[nH]c2ccccc2c1=O)NCCCN1CCOCC1 in this test.
Solution: 0 (no)

Problem: Please state the recorded outcome for this molecule: Cn1c(=O)c(-c2cccc(C#N)c2)nc2cnc(Oc3ccccc3)nc21
Solution: 0 (no)

Problem: So what was the verdict on Cc1cccc(C)c1OC[C@@H](N)C(C)C in this test?
Solution: 0 (no)

Problem: // param item: Cc1cccn2c(/C=N/OCc3cccc(F)c3)c(-c3ccc(Cl)cc3)nc12 ; yields the recorded call
Solution: 1 (yes)

Problem: Outcome logged for CC(C)CN1CCC2(CC1)CCN(C(=O)c1cccn1C)CC2 in this assay:
Solution: 0 (no)

----------
# experimental_system: Cytochrome P450 2C9 (Homo sapiens) (UniProt P11712)
# Sequence (P11712 whole entry, looked up): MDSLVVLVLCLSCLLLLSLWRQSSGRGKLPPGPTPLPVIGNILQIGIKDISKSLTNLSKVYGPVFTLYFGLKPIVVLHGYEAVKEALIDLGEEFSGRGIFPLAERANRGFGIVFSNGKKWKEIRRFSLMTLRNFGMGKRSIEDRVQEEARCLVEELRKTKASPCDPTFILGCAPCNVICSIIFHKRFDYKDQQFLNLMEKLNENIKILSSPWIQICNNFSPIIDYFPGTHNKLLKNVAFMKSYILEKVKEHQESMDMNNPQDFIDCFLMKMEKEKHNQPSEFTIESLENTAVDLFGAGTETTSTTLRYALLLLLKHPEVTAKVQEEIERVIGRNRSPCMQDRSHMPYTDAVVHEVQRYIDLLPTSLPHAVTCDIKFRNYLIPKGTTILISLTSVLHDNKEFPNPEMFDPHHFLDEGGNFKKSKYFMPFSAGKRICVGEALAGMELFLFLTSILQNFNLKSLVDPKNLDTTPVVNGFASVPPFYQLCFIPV
# assay_method_text: Cytochrome panel assay with activity outcomes
# particulars: recombinant CYP, pro-luciferin dealkylation, luminescence, p450-cyp2c9; series mostly up to 57.1 µM
Among all 16,000 compounds or so, about 4,000 (25%) were called active. Roughly 26% stayed inconclusive and do not appear here. Calls follow the shape of the dose curve; as a rule, active = well fitted curve in the direction sought with a large enough effect; inconclusive = small, poorly fitted or top-dose-only effect, or effect the other way; inactive = no such curve, though single readings can be large or run the other way. A selection follows.
One label from this list, please: yes (1) (active), no (0) (inactive)

Reference set, count: 8
Problem: Please share the test call associated with CN1CCN(c2ncc3nc(-c4cn(C)c5ccccc45)c(=O)n(CCc4ccccc4)c3n2)CC1 .
Solution: no (0)

Problem: Please state the recorded outcome for this compound: O=C(Nc1ccccc1N1CCN(C(=O)c2ccccc2)CC1)c1cc(Br)ccc1Cl
Solution: yes (1)

Problem: Check the results log: what was the call for C/C(=N\Nc1nnc(-c2ccccc2)c(-c2ccccc2)n1)c1cccc([N+](=O)[O-])c1 ?
Solution: yes (1)

Problem: GET /call?item= OCCN(Cc1ccccc1)Cc1cccc(Cl)c1Cl returns the recorded outcome of this test.
Solution: yes (1)

Problem: What is the recorded call for this compound in the test? O=c1c(-c2cc(F)cc(F)c2)nc2cncnc2n1Cc1ccccc1Cl
Solution: yes (1)

Problem: GET /call?item= CCOC(=O)N1CCN(C(=O)c2ccc(Cl)c(S(=O)(=O)N3CCOCC3)c2)CC1 returns the recorded outcome of this test.
Solution: no (0)

Problem: # lookup: test call for Cn1cc(-c2nc3cnc(N4CCOCC4)nc3n(CCC#N)c2=O)c2ccccc21
Solution: no (0)

Problem: Which result was noted for this compound in the test: OCc1ccc(-c2nn(Cc3ccccc3)c3ccccc23)o1
Solution: yes (1)

More entries:
Problem: Hi, sorry to bother you, what did the test record for Cc1nc2cnc(N(C)C)nc2n(C)c1=O ?
Solution: no (0)

----------
# experimental_system: Cytochrome P450 2C9 (Homo sapiens) (UniProt P11712)
# assay_method_text: Cytochrome panel assay with activity outcomes
# particulars: recombinant CYP, pro-luciferin dealkylation, luminescence, p450-cyp2c9; series mostly up to 57.1 µM
Among all 16,000 compounds or so, about 4,000 (25%) were called active. Not shown: some 26% with an inconclusive outcome. Calls follow the shape of the dose curve; as a rule, active = well fitted curve in the direction sought with a large enough effect; inconclusive = small, poorly fitted or top-dose-only effect, or effect the other way; inactive = no such curve, though single readings can be large or run the other way. Only a sample is shown.
Result category, one only: 1.0 = active, 0.0 = inactive

For orientation, consider the following solved cases.
Problem: Each compound tested received a call. Report the one for COc1cc(/C=N/NC(N)=O)c(Br)cc1OCC(=O)Nc1ccccc1C .
Solution: 1.0

Problem: Which outcome was entered for the compound O=C(c1ccco1)N1CCC2(CC1)CN(c1ccccn1)C2 in this test?
Solution: 0.0

Problem: Answer briefly: the call reported for c1ccc2nc(C3=NCCN3)ccc2c1 in this assay.
Solution: 0.0

Problem: For CC(C)c1ccc(OCc2ccc(C(=O)N3CCN(c4ccccn4)CC3)cc2)cc1 , what call appears in the results of this test?
Solution: 1.0

Problem: Check the results log: what was the call for Cc1nc(Cl)c(C#N)cc1-c1ccccc1 ?
Solution: 1.0

Problem: What did this assay record as the result for Fc1ccc(C2CC(c3ccco3)=NN2c2ccccc2)cc1 (stereo not drawn) ?
Solution: 1.0

Next:
Problem: How was NCC[C@H](O)C(=O)N[C@H]1C[C@@H](N)[C@@H](O[C@H]2O[C@@H](CN)[C@@H](O)[C@@H](O)[C@@H]2O)[C@@H](O)[C@@H]1O[C@H]1O[C@@H](CO)[C@@H](O)[C@@H](N)[C@@H]1O classified in this test?
Solution: 0.0

Problem: What did the test return for Cc1cc(C)cc(-n2nnnc2-c2cn(C)nc2C(F)(F)F)c1 ?
Solution: 0.0

Problem: In this assay, the call recorded for COc1ccccc1CN1CC2(CCN(C(=O)c3cnccn3)CC2)C1 was what?
Solution: 0.0

----------
# experimental_system: Cytochrome P450 2C9 (Homo sapiens)
# assay_method_text: Cytochrome panel assay with activity outcomes
# particulars: recombinant CYP, pro-luciferin dealkylation, luminescence, p450-cyp2c9; series mostly up to 57.1 µM
The campaign covered roughly 16,000 compounds. About 4,000 (25%) were called active. About 26% were inconclusive and are not listed. Calls follow the shape of the dose curve; as a rule, active = well fitted curve in the direction sought with a large enough effect; inconclusive = small, poorly fitted or top-dose-only effect, or effect the other way; inactive = no such curve, though single readings can be large or run the other way. The list is a sample of the results.
Can you answer with just one of these options? Yes for active, No for inactive

Solved cases below.
Problem: Kindly provide the recorded test outcome for the following compound: CCOC(=O)c1cc(NC(=O)c2ccc(C)cc2)c(=O)oc1-c1ccccc1
Solution: No

Problem: Recorded test call requested for Cc1ccc(C)c(-c2nn(-c3cc(N4CCN(CCO)CC4)ccc3[N+](=O)[O-])c(=O)c3ccccc23)c1
Solution: Yes

Problem: Hey, what did the test say about Cc1cn2c(-c3ccncc3)nnc2s1 ?
Solution: No

Problem: Look up the recorded call for CC(C)N=c1cc2n(-c3ccc(Cl)cc3)c3ccccc3nc-2cc1Nc1ccc(Cl)cc1 in this test.
Solution: No

More entries:
Problem: Short answer needed: outcome of this test for Cn1c(CN2CCCCC2)nc2cc(NC(=O)c3ccc(Cl)cc3)ccc21 ?
Solution: No

Problem: Name the outcome recorded for COc1cc(/C=N/Nc2snc(SC)c2C#N)cc(OC)c1OC in the assay.
Solution: Yes

Problem: What classification did CCNc1ncc2nc(-c3cccs3)c(=O)n(Cc3cccc(OC)c3)c2n1 end up with in this test?
Solution: No

----------
# activity, negative = inhibition per record follows
# experimental_system: Cytochrome P450 2C9 (Homo sapiens)
# assay_method_text: Cytochrome panel assay with activity outcomes; as to activity, negative = inhibition: % is scaled to controls: 0 for no effect and ±100 for the full control effect
# particulars: recombinant CYP, pro-luciferin dealkylation, luminescence, p450-cyp2c9; series mostly up to 57.1 µM
Among all 16,000 compounds or so, about 4,000 (25%) were called active. Roughly 26% stayed inconclusive and do not appear here. These entries were drawn from the full list.

# annotated cases, reported activity, negative = inhibition shown
Problem: Which activity, negative = inhibition is reported for this compound? CC(C)(CO)N1CCN(C(=S)Nc2ccccc2)CC1
Solution: 10.3% [at 11.4 µM] (inactive)

Problem: Given Nc1ccc(S(=O)(=O)NCc2nccs2)cc1 , state its recorded activity, negative = inhibition.
Solution: -21.4% [at 11.4 µM] (inactive)

Problem: Give its activity, negative = inhibition value. Item: O=C(O)[C@H](Cc1c[nH]c2ccccc12)N1C(=O)c2ccccc2C1=O
Solution: 6.23% [at 11.4 µM] (inactive)

Problem: Given Cc1cnc(CNc2nc(-c3ccc(C(=O)N(C)C)cc3)nc3ccccc23)cn1 , state its recorded activity, negative = inhibition.
Solution: 6.85% [at 2.29 µM] (inactive)

Continuing:
Problem: Which activity, negative = inhibition value belongs to CN(C)CCCN1c2ccccc2Sc2ccc3ccccc3c21 ?
Solution: -11.1% [at 11.4 µM] (inactive)

Problem: Recorded activity, negative = inhibition of Cc1noc(C)c1-c1nccc(N2CCOCC2)n1 , please.
Solution: 7.39% [at 2.29 µM] (inactive)

Problem: Consider the compound COCCNc1ncnc2ccc(-c3ccoc3)cc12 and give its measured activity, negative = inhibition.
Solution: 0.323% [at 2.29 µM] (inactive)

Problem: Which activity, negative = inhibition reading was recorded for the compound O=C(O)c1cccc2cccc(-c3cccc4cccc(C(=O)O)c34)c12 ?
Solution: -4.84% [at 11.4 µM] (inactive)

Problem: activity, negative = inhibition lookup needed for C[C@@H]1NCC[C@H](CC(=O)O)[C@H]1CC(=O)O , thanks.
Solution: -13.5% [at 11.4 µM] (inactive)

Problem: Quick check: activity, negative = inhibition of COc1ccc(C(=O)[C@H](Br)[C@H](Br)C(=O)O)cc1 ?
Solution: -11.2% [at 11.4 µM] (inactive)

Problem: Given the entry CN(C)[C@H]1C(=O)C(C(=O)NCN2CCCC2)=C(O)[C@]2(O)C(=O)C3=C(O)c4c(O)cccc4[C@](C)(O)[C@H]3C[C@H]12 , report its measured activity, negative = inhibition.
Solution: -10.5% [at 11.4 µM] (inactive)

Problem: Record request: activity, negative = inhibition value, item O=C1Nc2ccccc2C1=Nc1cccc2ncccc12
Solution: 17.9% [at 11.4 µM] (inactive)
